- target entity: UniProt Q9NWZ3
- Sequence (Q9NWZ3 whole entry): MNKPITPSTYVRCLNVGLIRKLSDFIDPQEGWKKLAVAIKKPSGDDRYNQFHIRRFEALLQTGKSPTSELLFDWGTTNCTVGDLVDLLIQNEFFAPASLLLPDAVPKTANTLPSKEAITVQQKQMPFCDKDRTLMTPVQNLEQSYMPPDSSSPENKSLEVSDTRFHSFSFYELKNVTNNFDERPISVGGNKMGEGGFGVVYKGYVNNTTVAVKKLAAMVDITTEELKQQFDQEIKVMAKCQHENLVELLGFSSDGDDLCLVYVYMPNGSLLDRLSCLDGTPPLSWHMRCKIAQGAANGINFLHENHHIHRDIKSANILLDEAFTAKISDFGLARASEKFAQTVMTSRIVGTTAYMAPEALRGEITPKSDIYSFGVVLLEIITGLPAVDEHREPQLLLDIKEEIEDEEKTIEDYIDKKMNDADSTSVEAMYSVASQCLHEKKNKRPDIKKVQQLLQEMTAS
- measurement notes: IRAK4 Degradation HiBiT Assay
- particulars: Jurkat, read-out: Cellular IRAK4 HiBiT: Dmax, Table 4; HiBiT-tagged Jurkat cells, 4 hrs
# Dmax per record follows
// units = %; emit number, no label

Please look at this compound and report its Dmax: CC(C)Nc1cc(-c2ccc3cc(C#N)cnn23)ncc1-c1nnc(N2CCN(C(=O)CCOCCOCCOCCNc3cccc4c3C(=O)N(C3CCC(=O)NC3=O)C4=O)CC2)s1 (centres unmarked) [Example 11]
104

Please look at this compound and report its Dmax: CC(C)Nc1cc(-c2ccc3cc(C#N)cnn23)ncc1-c1nnc(N2CCN(C(=O)C3CCN(CC4CCN(c5ccc6c(=O)n(C7CCC(=O)NC7=O)ccc6c5)CC4)CC3)CC2)s1 (centres unmarked) [Example 21]
103

Please look at this compound and report its Dmax: Cc1ncsc1-c1ccc([C@H](C)NC(=O)[C@@H]2C[C@@H](O)CN2C(=O)[C@@H](NC(=O)CCCCCCCC(=O)N2CCN(c3nnc(-c4cnc(-c5ccc6cc(C#N)cnn56)cc4NC(C)C)s3)CC2)C(C)(C)C)cc1 [Example 36]
84

Please look at this compound and report its Dmax: CC(C)Nc1cc(-c2ccc3cc(C#N)cnn23)ncc1-c1nnc(N2CCN(CCCCc3cccc4c3CN(C3CCC(=O)NC3=O)C4=O)CC2)s1 (centres unmarked) [Example 28]
70

Please look at this compound and report its Dmax: CC(C)Nc1cc(-c2ccc3cc(C#N)cnn23)ncc1-c1nnc(N2CCN(C(=O)C3CCN(Cc4ccc5c(c4)C(=O)N(C4CCC(=O)NC4=O)C5=O)CC3)CC2)s1 (centres unmarked) [Example 13]
101

Please look at this compound and report its Dmax: CC(C)Nc1cc(-c2ccc3cc(C#N)cnn23)ncc1-c1nnc(N2CCN(C3CCN(C[C@H]4CCN(c5ccc6c(c5)C(=O)N(C5CCC(=O)NC5=O)C6=O)C4)CC3)CC2)s1 (some centres unmarked) [Example 17]
69

Please look at this compound and report its Dmax: Cc1ncsc1-c1ccc([C@H](C)NC(=O)[C@@H]2C[C@@H](O)CN2C(=O)[C@@H](NC(=O)CCOCCOCCOCCOCCOCCC(=O)N2CCN(c3nnc(-c4cnc(-c5ccc6cc(C#N)cnn56)cc4NC(C)C)s3)CC2)C(C)(C)C)cc1 [Example 41]
44

Please look at this compound and report its Dmax: CNc1cc(-c2ccc3cc(C#N)cnn23)ncc1-c1nnc([C@H]2CC[C@H](NC(=O)CCCCC(=O)N[C@H](C(=O)N3C[C@H](O)C[C@H]3C(=O)N[C@@H](C)c3ccc(-c4scnc4C)cc3)C(C)(C)C)CC2)s1 [Example 57]
107
